assayed.target: UniProt Q8VGU3
Sequence (whole entry): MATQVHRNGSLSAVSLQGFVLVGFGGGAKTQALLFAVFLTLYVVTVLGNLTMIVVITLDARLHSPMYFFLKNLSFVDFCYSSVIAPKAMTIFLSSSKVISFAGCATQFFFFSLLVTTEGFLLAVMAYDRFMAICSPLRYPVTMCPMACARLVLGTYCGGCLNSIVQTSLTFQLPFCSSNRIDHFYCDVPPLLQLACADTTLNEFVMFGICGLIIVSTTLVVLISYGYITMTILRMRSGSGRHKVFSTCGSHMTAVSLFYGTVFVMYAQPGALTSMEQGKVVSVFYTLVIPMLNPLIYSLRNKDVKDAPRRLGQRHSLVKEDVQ
reported.conditions: stereoisomer not certain

# molecule, assayed.target, odorant receptor agonist call
data = [
    ("Oc1ccccc1Br", "UniProt Q8VGU3", "inactive"),
    ("C=C(C)C1CC=C(C=O)CC1 (configuration not stated)", "UniProt Q8VGU3", "inactive"),
    ("COc1ccc(C=O)cc1", "UniProt Q8VGU3", "inactive"),
    ("CSSC", "UniProt Q8VGU3", "inactive"),
    ("CCCCCCC(Br)C(=O)O (configuration not stated)", "UniProt Q8VGU3", "inactive"),
    ("O=c1cc(O)c2ccccc2o1", "UniProt Q8VGU3", "inactive"),
    ("CC(C=O)Cc1ccc2c(c1)OCO2 (configuration not stated)", "UniProt Q8VGU3", "inactive"),
]

---

assayed.target: UniProt E9Q4X7
Sequence (E9Q4X7 as listed by the source): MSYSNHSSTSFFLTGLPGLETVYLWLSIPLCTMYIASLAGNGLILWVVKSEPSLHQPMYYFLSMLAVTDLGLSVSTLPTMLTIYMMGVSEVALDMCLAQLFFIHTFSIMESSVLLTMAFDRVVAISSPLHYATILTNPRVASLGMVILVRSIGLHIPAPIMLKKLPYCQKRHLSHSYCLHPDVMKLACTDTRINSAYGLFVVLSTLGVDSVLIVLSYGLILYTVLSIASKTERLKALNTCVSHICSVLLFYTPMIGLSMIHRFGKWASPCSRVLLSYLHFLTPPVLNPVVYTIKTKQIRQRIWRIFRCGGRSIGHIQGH
reported.conditions: stereoisomer not certain

# compound, odorant receptor agonist call
rows = [
    ("O=Cc1ccc2c(c1)OCO2", "inactive"),
    ("C=C(C)C1CC=C(C=O)CC1 (stereo not given)", "inactive"),
    ("CSSC", "inactive"),
    ("O=Cc1ccccc1", "inactive"),
    ("C=CCOC(=O)Cc1ccccc1", "inactive"),
    ("CC(C=O)Cc1ccc2c(c1)OCO2 (stereo not given)", "inactive"),
    ("CCCCC(Br)C(=O)O (stereo not given)", "inactive"),
    ("OCc1ccc2c(c1)OCO2", "inactive"),
    ("CCCCCCC(Br)C(=O)O (stereo not given)", "inactive"),
    ("O=CC=Cc1ccccc1", "inactive"),
]
